In this section, each of the variants is paired with its reported abundance fitness.
B1: Poly(rC)-binding protein 1, residues 278 to 350; numbered along this chain, Q15365 (parent)
chain: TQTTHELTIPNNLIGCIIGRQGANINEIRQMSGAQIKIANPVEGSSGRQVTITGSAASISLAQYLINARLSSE

variants of: B1; assay: abundance fitness (aPCA) (normalised: wild type 0, dead -1); higher = more abundant; growth selection in yeast, the domain comes from the species named; settings: Homo sapiens

Worked cases, abundance fitness given:
Exercise: Which value of abundance fitness has been reported for `C16K` in the records?
Key: 0.093

Exercise: Note, next up: `N12R`
Key: 0.027

Exercise: Note, next up: `N24Y`
Key: 0.01

More entries:
Exercise: Which value of abundance fitness has been reported for `N11V` in the records?
Key: -0.352

Exercise: Note, next up: `G47S`
Key: 0.023

Exercise: Note, next up: `N67F`
Key: 0.034

Exercise: Note, next up: `T8R`
Key: -0.028

Exercise: Note, next up: `S46R`
Key: -0.106

Exercise: Note, next up: `K37S`
Key: -0.11

Exercise: Note, next up: `Y64R`
Key: 0.28

Exercise: Note, next up: `I59N`
Key: -0.423

Exercise: Note, next up: `S46P`
Key: -0.029

Exercise: Note, next up: `S60T`
Key: 0.012

Exercise: Note, next up: `T3A`
Key: 0.048

Exercise: Note, next up: `S45M`
Key: 0.005

Exercise: Note, next up: `A56V`
Key: -0.072

Exercise: Note, next up: `G47H`
Key: -0.129

Exercise: Note, next up: `S58D`
Key: 0.009

Exercise: Note, next up: `M31T`
Key: -0.051

Exercise: Note, next up: `G19M`
Key: -0.774

Exercise: Note, next up: `G44S`
Key: -0.235

Exercise: Note, next up: `G22D`
Key: -0.249

Exercise: Note, next up: `I18D`
Key: -0.39

Exercise: Note, next up: `K37C`
Key: -0.4
